species: Rattus norvegicus; assay: DrugMatrix - Regimen: Daily Repeat; type: toxicity, organism-based, Sprague-Dawley; design: regimen Daily Repeat, gender Male, age 6-8 weeks; conditions: in vivo, po, 0 mg/kg, 72 h, tissue Plasma, route oral GAVAGE, dose level Control, time 3 day, vehicle 100 % WATER
Measure: SODIUM
Units required after the number.

{"Compound": "Clc1cccc(Cl)c1N=C1NCCN1 [CLONIDINE]", "SODIUM": "141.53 MEQ/L"}
{"Compound": "N[C@@H](Cc1ccc(O)c(O)c1)C(=O)O [LEVODOPA]", "SODIUM": "144.43 MEQ/L"}
{"Compound": "CN(C)CCCN1c2ccccc2Sc2ccc(Cl)cc21 [CHLORPROMAZINE]", "SODIUM": "143.1 MEQ/L"}
{"Compound": "C[C@](N)(Cc1ccc(O)c(O)c1)C(=O)O [METHYLDOPA]", "SODIUM": "144.27 MEQ/L"}
{"Compound": "NCCCCCC(=O)O [AMINOCAPROIC ACID]", "SODIUM": "142.62 MEQ/L"}
{"Compound": "Cc1onc(-c2ccccc2Cl)c1C(=O)N[C@@H]1C(=O)N2[C@@H]1SC(C)(C)[C@@H]2C(=O)O [CLOXACILLIN]", "SODIUM": "142.62 MEQ/L"}

Provide the reported SODIUM of each entry below, same order.
1. C=CCC1(C(C)CCC)C(=O)NC(=O)NC1=O (stereo not given) [SECOBARBITAL]
2. c1ccc([C@H]2CN3CCSC3=N2)cc1 [LEVAMISOLE]
3. CC(O)CO (stereo not given) [PROPYLENE GLYCOL]
4. COc1cc2nc(N3CCN(C(=O)C4COc5ccccc5O4)CC3)nc(N)c2cc1OC (stereo not given) [DOXAZOSIN]
5. Cn1cc[nH]c1=S [METHIMAZOLE]
6. Nc1c2c(nc3ccccc13)CCCC2 [TACRINE]
7. C[C@H]1c2cccc(O)c2C(=O)C2=C(O)[C@]3(O)C(=O)C(C(N)=O)=C(O)[C@@H](N(C)C)[C@@H]3[C@@H](O)[C@@H]21.O [DOXYCYCLINE]

Reply:
["144.12 MEQ/L", "140.5 MEQ/L", "142.62 MEQ/L", "144.43 MEQ/L", "144.87 MEQ/L", "148.5 MEQ/L", "144.43 MEQ/L"]

Please look at the items below and tell me SODIUM for each one, in order.
1. CNNCc1ccc(C(=O)NC(C)C)cc1 [PROCARBAZINE]
2. C[C@H](CS)C(=O)N1CCC[C@H]1C(=O)O [CAPTOPRIL]

Reply:
1: 147.02 MEQ/L; 2: 142.53 MEQ/L

* * *

For each record, write down the corresponding POTASSIUM.
organism: Rattus norvegicus; assay: DrugMatrix - Regimen: Daily Repeat; assay type: toxicity, organism-based, Sprague-Dawley; parameters: regimen Daily Repeat, gender Male, age 6-8 weeks; details: in vivo, iv, 0 mg/kg, 120 h, tissue Plasma, dose level Control, time 5 day, vehicle 100 % SALINE
Starred links: 1 amine or outer side, 2 acyl side, 3 side chain; linkers in the order of their positions; H or OH if unused. Positions of bridges follow the written chain, without caps; N, C: chain ends. Non-standard residues stand in square brackets, D forms with d. Residues, ends and D or L forms follow the SMILES beside them. Chains are numbered I, II in the order given. Actinocin(9to1) = Cc1c2oc3c(C)ccc(C(=O)[*:1])c3nc-2c(C(=O)[*:2])c(N)c1=O; NMeV = CN[C@H](C(=O)O)C(C)C; Sar = CNCC(=O)O
Give bare numbers, in MEQ/L.

// below: answered compounds
{"Compound": "CC[C@]1(O)C[C@H]2CN(CCc3c([nH]c4ccccc34)[C@@](C(=O)OC)(c3cc4c(cc3OC)N(C=O)[C@H]3[C@@](O)(C(=O)OC)[C@H](OC(C)=O)[C@]5(CC)C=CCN6CC[C@]43[C@@H]65)C2)C1 [VINCRISTINE]", "Unit Symbol": "MEQ/L", "POTASSIUM": 5.37}
{"Compound": "Cc1ccc(N(CC2=NCCN2)c2cccc(O)c2)cc1 [PHENTOLAMINE]", "Unit Symbol": "MEQ/L", "POTASSIUM": 6.21}
{"Compound": "Cc1c2oc3c(C)ccc(C(=O)N[C@@H]4C(=O)N[C@H](C(C)C)C(=O)N5CCC[C@H]5C(=O)N(C)CC(=O)N(C)[C@@H](C(C)C)C(=O)O[C@@H]4C)c3nc-2c(C(=O)N[C@@H]2C(=O)N[C@H](C(C)C)C(=O)N3CCC[C@H]3C(=O)N(C)CC(=O)N(C)[C@@H](C(C)C)C(=O)O[C@@H]2C)c(N)c1=O [DACTINOMYCIN] (I: T[dV]P[Sar][NMeV] / II: T[dV]P[Sar][NMeV]; ester I:1-I:C, II:1-II:C; linker I:N-II:N via Actinocin(9to1))", "Unit Symbol": "MEQ/L", "POTASSIUM": 5.85}

# evaluate next
Query "COc1cc2c3cc1Oc1cc(ccc1O)C[C@@H]1c4c(cc(OC)c(O)c4Oc4ccc(cc4)C[C@@H]3N(C)CC2)CC[N+]1(C)C.[Cl-]" yields POTASSIUM of 6.12

* * *

Please respond with reported POTASSIUM for every item in the list.
species: Rattus norvegicus; assay: DrugMatrix - Regimen: Daily Repeat; format: toxicity, organism-based, Sprague-Dawley; design: regimen Daily Repeat, gender Male, age 6-8 weeks; details: in vivo, po, 0 mg/kg, […], tissue Plasma, route oral GAVAGE, dose level Control, time 14 day, vehicle .5 % CMC
Numbers only, in MEQ/L.

Answered examples (3):
{"Compound": "ClC(Br)Br [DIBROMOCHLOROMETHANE]", "POTASSIUM / MEQ/L": 6.4}
{"Compound": "ClC(Cl)Br [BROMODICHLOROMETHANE]", "POTASSIUM / MEQ/L": 6.4}
{"Compound": "CCOP(=S)(OCC)Oc1nc(Cl)c(Cl)cc1Cl [CHLORPYRIFOS]", "POTASSIUM / MEQ/L": 6.48}

Input COc1ccc(C(=O)Nc2c(Cl)c[n+]([O-])cc2Cl)c2ccc(C(F)(F)F)nc12 [SCH-351591] . Output POTASSIUM: 6.77

* * *

species on record: Rattus norvegicus; experiment: DrugMatrix - Regimen: Daily Repeat; format: toxicity, organism-based, Sprague-Dawley; parameters: regimen Daily Repeat, gender Male, age 6-8 weeks; conditions: in vivo, po, 0 mg/kg, 120 h, tissue Plasma, route oral GAVAGE, dose level Control, time 5 day, vehicle 100 % WATER
Would you mind telling me the reported POTASSIUM of each entry?
Numbers only, in MEQ/L.

Take a look at these entries with their results.
{"Compound": "CNNCc1ccc(C(=O)NC(C)C)cc1", "Measure": "POTASSIUM", "Recorded Result": 6.11}
{"Compound": "Cn1cc[nH]c1=S", "Measure": "POTASSIUM", "Recorded Result": 6.07}
{"Compound": "COc1cc2nc(N3CCN(C(=O)C4COc5ccccc5O4)CC3)nc(N)c2cc1OC (stereo not given)", "Measure": "POTASSIUM", "Recorded Result": 6.11}
{"Compound": "c1ccc([C@H]2CN3CCSC3=N2)cc1", "Measure": "POTASSIUM", "Recorded Result": 6.29}
{"Compound": "NCCCCCC(=O)O", "Measure": "POTASSIUM", "Recorded Result": 6.86}
{"Compound": "Cc1onc(-c2ccccc2Cl)c1C(=O)N[C@@H]1C(=O)N2[C@@H]1SC(C)(C)[C@@H]2C(=O)O", "Measure": "POTASSIUM", "Recorded Result": 6.86}
{"Compound": "C[C@H]1c2cccc(O)c2C(=O)C2=C(O)[C@]3(O)C(=O)C(C(N)=O)=C(O)[C@@H](N(C)C)[C@@H]3[C@@H](O)[C@@H]21.O", "Measure": "POTASSIUM", "Recorded Result": 6.11}
{"Compound": "C[C@H](CS)C(=O)N1CCC[C@H]1C(=O)O", "Measure": "POTASSIUM", "Recorded Result": 6.81}

Provide reported POTASSIUM for each item, in the same order as listed.
1. CC(O)CO (stereo not given)
2. C=CCC1(C(C)CCC)C(=O)NC(=O)NC1=O (stereo not given)
3. N[C@@H](Cc1ccc(O)c(O)c1)C(=O)O
4. CN(C)CCCN1c2ccccc2Sc2ccc(Cl)cc21
5. Nc1c2c(nc3ccccc13)CCCC2
6. Clc1cccc(Cl)c1N=C1NCCN1
7. C[C@](N)(Cc1ccc(O)c(O)c1)C(=O)O

Reply:
6.86
6
6.11
5.59
7.05
6.5
6.76

* * *

organism: Rattus norvegicus; test: DrugMatrix - Regimen: Daily Repeat; format: toxicity, organism-based, Sprague-Dawley; set-up: regimen Daily Repeat, gender Male, age 6-8 weeks; details: in vivo, ip, 2 mg/kg, […], tissue Blood, route intraperitoneal, dose level High, time 14 day, vehicle 100 % SALINE
Measure: ABSOLUTE EOSINOPHIL (cells/µL)
One number for each entry, in cells/µL.

Measured ABSOLUTE EOSINOPHIL of LEAD (II) ACETATE : 74
